Parameter pKd: see the listing below.
target_entity: type V tartrate-resistant acid phosphatase (TRAP) protein, immobilised on CM5 sensor chip
assay: SPR, TRAP amine-coupled to CM5 chip, initial rate analysis of sensorgrams
Ends that are not written are not given here.
pKd is a log-scale quantity: -log10 of the concentration expressed in molar.

According to the records, this binder TPLSYLKGLVTVG-OH (not fully specified (N-terminus); also: RAFT copolymer with PEG methyl ether methacrylate (300 Da), about 11 peptides per chain) [5% TBP-functionalized PEG polymer of Table 4, M:CTA:I 600:1:0.1, Mn 98.2 kDa] displays pKd of 3.85
